target: Acetylcholinesterase (Homo sapiens) (UniProt P22303); test: Inhibition of human erythrocytes AChE at 50 uM using acetylthiocholine iodide as substrate preincubated for 20 mins followed by substrate addition and measured every 30 secs for 1 hr by spectrophotometry based Ellman's method
Sequence (P22303 whole entry): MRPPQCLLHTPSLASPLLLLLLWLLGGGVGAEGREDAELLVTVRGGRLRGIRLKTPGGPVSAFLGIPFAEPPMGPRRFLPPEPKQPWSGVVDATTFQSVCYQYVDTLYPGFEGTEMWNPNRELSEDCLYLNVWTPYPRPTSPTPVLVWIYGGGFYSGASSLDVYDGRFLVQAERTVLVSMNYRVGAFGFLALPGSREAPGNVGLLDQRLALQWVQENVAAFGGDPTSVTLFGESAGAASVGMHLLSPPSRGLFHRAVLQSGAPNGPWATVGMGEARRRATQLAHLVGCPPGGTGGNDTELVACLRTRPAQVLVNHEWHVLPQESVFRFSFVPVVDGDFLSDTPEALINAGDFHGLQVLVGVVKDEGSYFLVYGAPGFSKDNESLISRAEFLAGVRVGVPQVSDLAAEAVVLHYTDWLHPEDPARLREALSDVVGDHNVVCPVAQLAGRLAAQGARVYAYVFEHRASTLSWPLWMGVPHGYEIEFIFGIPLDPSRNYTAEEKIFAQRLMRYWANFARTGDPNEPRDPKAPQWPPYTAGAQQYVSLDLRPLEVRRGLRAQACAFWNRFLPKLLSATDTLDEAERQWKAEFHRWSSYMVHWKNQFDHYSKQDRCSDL
Calls of active or inactive are those of the source. The rule behind the calls is not given here.

{"columns": ["INPUT SMILES", "inhibition"],
 "data": [
  ["C=C1[C@@]23C(=O)O[C@H](C)[C@@]2(O)C(=O)O[C@]1(C)[C@@H](OC(C)=O)C1=C(C)[C@]2(C=CC(=O)OC2(C)C)CC[C@@]13C", "inactive"],
  ["C=C1[C@]2(C)C(=O)[C@]3(O)[C@H](C)OC(=O)[C@]13[C@@]1(C)CC[C@@]3(C=CC(=O)OC3(C)C)C(C)=C1[C@@H]2OC(C)=O", "inactive"],
  ["C=C1[C@@]2(C)C[C@]3(C)[C@](C)(CC[C@@H]4C(C)(C)OC(=O)C=C[C@]43C)[C@@]13C(=O)O[C@H](C)[C@@]3(O)C2=O", "inactive"]
]}

// data source = ChEMBL document CHEMBL4342445
